biological target: Diaphorase; assay: peptide array, 10 uM labeled diaphorase, no FAD
Parameter: fluorescence. Scope: all listed entries.
// no unit, no text: just the number

Example binders with recorded fluorescence:
binder | endpoint | test_result
LLGFLGGSG | fluorescence | 26300
ELFGALFKGGSG | fluorescence | 12900
RSHPKHNVGSG | fluorescence | 17000
YSALFGLQEDGSG | fluorescence | 8530

Query binder follows.
Value lookup for fluorescence; key = `DLDKAFGGSG`
1850
